Hey, just so you know, these numbers are from paper PMC10456296.

IC50 reference
# System: Prorocentrum donghaiense
# protocol: Antimicroalgal activity, inhibition of marine phytoplankton
# conditionInfo: Prorocentrum donghaiense, 24 h, read-out: IC50 Prorocentrum donghaiense

{"compound": "C/C=C/CCC(O)C(O)C/C=C/CC(C)O (stereo not drawn) [Compound 5, (4E,11E)-trideca-4,11-dien-2,7,8-triol]", "IC50": "> 100 µg/mL"}
{"compound": "C=CCC(O)/C=C/C(O)C(O)CC/C=C/C (stereo not drawn)", "IC50": "> 100 µg/mL"}
{"compound": "C/C=C/CCC(O)C(O)C/C=C/CO (stereo not drawn)", "IC50": "> 100 µg/mL"}
